TARGET: recombinant human DPP9 (Homo sapiens, UniProt Q86TI2)
Construct: purchased R&D Systems
Sequence (Q86TI2 whole entry): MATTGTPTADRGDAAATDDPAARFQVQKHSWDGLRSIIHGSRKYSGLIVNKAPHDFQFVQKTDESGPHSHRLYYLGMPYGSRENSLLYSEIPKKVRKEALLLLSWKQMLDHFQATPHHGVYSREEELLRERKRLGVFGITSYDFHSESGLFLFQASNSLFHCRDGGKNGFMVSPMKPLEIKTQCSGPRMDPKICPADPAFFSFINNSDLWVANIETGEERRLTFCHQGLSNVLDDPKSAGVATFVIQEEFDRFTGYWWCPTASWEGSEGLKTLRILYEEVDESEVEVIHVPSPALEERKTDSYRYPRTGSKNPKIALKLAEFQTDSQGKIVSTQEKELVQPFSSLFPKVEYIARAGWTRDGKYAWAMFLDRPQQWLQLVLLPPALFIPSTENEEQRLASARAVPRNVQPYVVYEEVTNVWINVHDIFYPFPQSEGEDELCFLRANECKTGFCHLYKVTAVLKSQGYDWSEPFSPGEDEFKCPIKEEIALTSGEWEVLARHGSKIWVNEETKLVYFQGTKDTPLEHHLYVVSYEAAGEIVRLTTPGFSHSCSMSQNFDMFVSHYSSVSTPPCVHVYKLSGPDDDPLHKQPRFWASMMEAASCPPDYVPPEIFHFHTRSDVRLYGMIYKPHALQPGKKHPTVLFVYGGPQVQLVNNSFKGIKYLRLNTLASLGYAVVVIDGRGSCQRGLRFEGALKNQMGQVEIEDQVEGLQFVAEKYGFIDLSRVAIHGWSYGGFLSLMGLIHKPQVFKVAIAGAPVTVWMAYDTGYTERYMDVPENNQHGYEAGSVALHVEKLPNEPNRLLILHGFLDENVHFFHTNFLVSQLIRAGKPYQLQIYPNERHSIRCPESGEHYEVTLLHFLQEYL
ASSAY NAME: DPP9 inhibition, fluorogenic substrate H-Gly-Pro-AMC
Assay type: biochemical
CONDITION CONTEXT: recombinant human DPP9
OBSERVED PROPERTY: pIC50
In plain terms, pIC50 is the concentration in mol/L turned into minus its base-10 logarithm.

Example entries begin here.
{"columns": ["SMI", "pIC50"],
 "data": [
  ["N#C[C@@H]1C[C@H](F)CN1C(=O)CN1CCC(Nc2cncc3c(Cl)cccc23)CC1", 5.34],
  ["N#C[C@@H]1CCCN1C(=O)CN1CCC(Nc2ccc(C(=O)Nc3cccnc3)c3ncccc23)CC1", 5.70],
  ["N#C[C@@H]1CCCN1C(=O)CN1CCC(Nc2ccc(C(=O)Nc3ccccn3)c3ncccc23)CC1", 5.48]
]}

Now look at this one.
Inquiry: # input compound: "Cc1cncc2cccc(NC3CCN(CC(=O)N4C[C@@H](F)C[C@H]4C#N)CC3)c12" ; wanted: its pIC50
Reply text: 5.31
